# assayText: Single dose pharmacokinetics of TH-302 after a 30-min intravenous infusion in rats
# Format: in vivo
# condition: female, rat, plasma, iv, 200 mg/kg, female rats, 200 mg/kg, 30-min IV infusion; read-out: AUC
reportedProperty: AUC
Don't forget the unit after the value.

Prompt line: Which AUC value is on record for Cn1c(COP(=O)(NCCBr)NCCBr)cnc1[N+](=O)[O-] ?
Response line: 40600 ng·h/mL

* * *

# assayText: Pharmacokinetics of TH-302 in rats after a single IV dose
# Type: in vivo, Sprague-Dawley rats
# condition: Sprague-Dawley, plasma, rat, 1 mg/kg, n = 3, mean ± S.D.
reportedProperty: Tmax (min)
Please give a number only; it is taken to be in min.

Prompt line: Which Tmax value is on record for Cn1c(COP(=O)(NCCBr)NCCBr)cnc1[N+](=O)[O-] ?
Response line: 1.98

* * *

# assayText: Single dose pharmacokinetics of TH-302 after a 30-min intravenous infusion in rats
# Type: in vivo
# condition: female, Sprague-Dawley, rat, plasma, iv, 100 mg/kg, female rats, 100 mg/kg, 30-min IV infusion; read-out: Half-Life (converted)
reportedProperty: half-life
Don't forget the unit after the value.

Prompt line: Which half-life value is on record for Cn1c(COP(=O)(NCCBr)NCCBr)cnc1[N+](=O)[O-] ?
Response line: 17.2 min

* * *

# assayText: Pharmacokinetics of TH-302 in rats after a single oral (PO) dose
# Type: in vivo, Sprague-Dawley rats
# condition: male, Sprague-Dawley, rat, plasma, oral, 100 mg/kg, male rat, PO, 100 mg/kg vs 100 mg/kg 30 minute IV infusion; read-out: Oral F (absolute oral bioavailability)
reportedProperty: bioavailability (%)
Please give a number only; it is taken to be in %.

Prompt line: Which bioavailability value is on record for Cn1c(COP(=O)(NCCBr)NCCBr)cnc1[N+](=O)[O-] [TH-302] ?
Response line: 77.3

* * *

# assayText: Single dose pharmacokinetics of TH-302 after a 30-min intravenous infusion in rats
# Assay type: in vivo
# condition: Sprague-Dawley, rat, plasma; male rats, 200 mg/kg, 30-min IV infusion
reportedProperty: Tmax (min)
Please give a number only; it is taken to be in min.

Prompt line: Which Tmax value is on record for Cn1c(COP(=O)(NCCBr)NCCBr)cnc1[N+](=O)[O-] ?
Response line: 33

* * *

# assayText: Single dose pharmacokinetics of TH-302 after a 30-min intravenous infusion in rats
# Format: in vivo
# condition: female, Sprague-Dawley, rat, plasma, iv, 100 mg/kg, female rats, 100 mg/kg, 30-min IV infusion; read-out: AUC
reportedProperty: AUC
Don't forget the unit after the value.

Prompt line: Which AUC value is on record for Cn1c(COP(=O)(NCCBr)NCCBr)cnc1[N+](=O)[O-] [TH-302] ?
Response line: 16100 ng·h/mL

* * *

# assayText: Single dose pharmacokinetics of TH-302 after a 30-min intravenous infusion in rats
# Assay type: in vivo
# condition: male, Sprague-Dawley, rat, plasma, iv, 100 mg/kg, male rats, 100 mg/kg, 30-min IV infusion; read-out: Half-Life (converted)
reportedProperty: half-life (min)
Please give a number only; it is taken to be in min.

Prompt line: Which half-life value is on record for Cn1c(COP(=O)(NCCBr)NCCBr)cnc1[N+](=O)[O-] [TH-302] ?
Response line: 16.2
